Biological target: T1, human PD-L1 (construct not stated) (human, UniProt Q9NZQ7 19-239, limits assumed)
T1 construct: also called B7-H1 (PD-L1); PD-L1 protein
T1 sequence (Q9NZQ7 19-239 limits assumed): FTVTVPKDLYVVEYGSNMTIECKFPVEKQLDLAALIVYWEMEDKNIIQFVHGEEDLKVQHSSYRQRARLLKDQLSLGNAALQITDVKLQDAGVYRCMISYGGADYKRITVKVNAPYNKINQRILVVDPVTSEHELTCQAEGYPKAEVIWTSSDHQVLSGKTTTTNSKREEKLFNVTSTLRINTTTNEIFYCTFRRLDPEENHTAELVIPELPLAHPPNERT
Assay: SPR Biacore, affinity ranking
recorded_endpoint: koff (s⁻¹)
Provide only the numeric value, understood in s⁻¹.

Completed entries (count: 4):
WT (parental clone of the Hu1210-41 engineering) (antibody, V domains shown, Differs from Hu1210-41 by S60R (Kabat) in the heavy chain; also called parental antibody WT; parent antibody WT) VH: EVQLVESGGGLVQPGGSLRLSCAASGFTFSSYDMSWVRQAPGKSLEWVATISDAGGYIYYRDSVKGRFTISRDNAKNSLYLQMNSLRDEDTAVYICAREFGKRYALDYWGQGTTVTVSS VL: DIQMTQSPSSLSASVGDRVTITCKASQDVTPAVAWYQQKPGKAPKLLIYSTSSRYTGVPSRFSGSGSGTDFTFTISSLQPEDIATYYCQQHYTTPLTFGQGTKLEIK
0.000464
A2 (antibody, V domains shown) VH: EVQLVESGGGLVQPGGSLRLSCAASGFTFSSYDMSWVRQAPGKSLEWVATISDAGGYIYYRDSVKGRFTISRDNAKNSLYLQMNSLRDEDTAVYICARELRGRYALDYWGQGTTVTVSS VL: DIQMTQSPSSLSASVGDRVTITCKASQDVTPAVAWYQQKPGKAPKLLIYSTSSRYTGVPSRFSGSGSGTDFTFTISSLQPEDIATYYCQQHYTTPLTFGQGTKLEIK
0.000475
A1 (antibody, V domains shown) VH: EVQLVESGGGLVQPGGSLRLSCAASGFTFSSYDMSWVRQAPGKSLEWVATISDAGGYIYYRDSVKGRFTISRDNAKNSLYLQMNSLRDEDTAVYICARELLHRYALDYWGQGTTVTVSS VL: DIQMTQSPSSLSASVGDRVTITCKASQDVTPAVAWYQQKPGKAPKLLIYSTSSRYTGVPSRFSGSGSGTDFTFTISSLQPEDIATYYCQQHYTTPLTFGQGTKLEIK
0.000276
B3 (antibody, V domains shown) VH: EVQLVESGGGLVQPGGSLRLSCAASGFTFSSYDMSWVRQAPGKSLEWVATISDAGGYIYYRDSVKGRFTISRDNAKNSLYLQMNSLRDEDTAVYICAREFGKRYALDYWGQGTTVTVSS VL: DIQMTQSPSSLSASVGDRVTITCKAKQDVTPAVAWYQQKPGKAPKLLIYSTSSRYTGVPSRFSGSGSGTDFTFTISSLQPEDIATYYCMQHYTTPLTFGQGTKLEIK
0.000296

Turning to the following binder.
Record request: koff value, item C6 (antibody, V domains shown) VH: EVQLVESGGGLVQPGGSLRLSCAASGFTFSSYDMSWVRQAPGKSLEWVATISDAGGYIYYRDSVKGRFTISRDNAKNSLYLQMNSLRDEDTAVYICARELYFRYALDYWGQGTTVTVSS VL: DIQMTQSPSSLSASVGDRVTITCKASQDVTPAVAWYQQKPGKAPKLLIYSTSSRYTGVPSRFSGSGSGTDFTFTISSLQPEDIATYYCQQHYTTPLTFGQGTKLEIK
0.000334
